Source listed as patent US20110288057A1.

Target: Recombinant human Farnesyl Pyrophosphate synthase (FPPS) (Homo sapiens, UniProt P14324)
Construct: made in house
Sequence (P14324 72-419 limits assumed): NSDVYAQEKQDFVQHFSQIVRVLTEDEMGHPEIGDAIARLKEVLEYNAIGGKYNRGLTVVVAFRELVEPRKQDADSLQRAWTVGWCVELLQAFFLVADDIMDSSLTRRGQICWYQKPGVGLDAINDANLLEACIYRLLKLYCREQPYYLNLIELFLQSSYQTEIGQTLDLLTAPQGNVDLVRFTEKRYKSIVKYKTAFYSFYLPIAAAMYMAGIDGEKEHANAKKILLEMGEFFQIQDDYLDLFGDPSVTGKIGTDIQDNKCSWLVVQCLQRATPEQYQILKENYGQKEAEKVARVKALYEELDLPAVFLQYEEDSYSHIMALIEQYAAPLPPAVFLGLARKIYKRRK
Assay: FPPS SPA (scintillation proximity FlashPlate assay of FPPS inhibition)
Type: biochemical
Settings: Inhibition according to the FPPS SPA (Example 21); read-out: IC50
Parameter: pIC50. Scope: all listed entries.
Lab note — pIC50 values are minus log10 of concentrations in M.

Worked examples, 4 molecules total:
>>> print(df.to_string())
                                   molecule  reading
0  CCN(CC)c1ccc(C(=O)O)c(OCc2cccc3ccc(Cl)cc23)c1 [17 f)]     5.74
1  Cc1ccc(COc2ccccc2C(=O)O)c2ccccc12 [17 e)]     5.74
2  CCN(CC)c1ccc(C(=O)O)c(OCc2cccc3ccccc23)c1 [17 i)]     6.40
3  Cc1cc(O)c(C(=O)O)c(OCc2cccc3ccccc23)c1 [17 p)]     5.60

Query O=C(O)c1cc(Cl)ccc1OCc1cccc2ccccc12 [17 j)] yields pIC50 of 5.53

// recorded pIC50 for O=C(O)c1ccc(Br)cc1OCc1cccc2ccccc12 [17 q)] : 5.17

The molecule listed as CCN(CC)c1ccc(C(=O)O)c(OCc2c(C)ccc3ccccc23)c1 [17 d)] shows pIC50 equal to 6.18

The measured pIC50 associated with O=C(O)c1ccc(OCc2ccccc2)cc1OCc1cccc2ccccc12 [17 n)] reads 6.14

// pIC50 lookup, molecule = O=C(O)c1cc2ccccc2cc1OCc1cccc2ccccc12 [17 h)] , result: 6.08

Looking up O=C(O)c1ccc(OC(F)(F)F)cc1OCc1cccc2ccccc12 [17 l)] , I see its pIC50 listed as 5.54

The recorded pIC50 for COc1ccc(OCc2cccc3ccccc23)c(C(=O)O)c1 [17 o)] is 6.06

Looking up COc1ccc(C(=O)O)c(OCc2cccc3ccccc23)c1 [17 s)] , I found its pIC50 recorded as 5.87

response.value for CC(C)CCOc1ccc(C(=O)O)c(OCc2cccc3ccccc23)c1 [17 m)] (field: pIC50) = 5.72

pIC50 reading for Cc1ccc2ccccc2c1COc1cc(-n2c(C)ccc2C)ccc1C(=O)O [17 c)] : 6.32

* * *

Molecular target: Recombinant human Farnesyl Pyrophosphate synthase (FPPS) (Homo sapiens)
Construct: made in house
Test: FPPS SPA (scintillation proximity FlashPlate assay of FPPS inhibition)
Type: biochemical
Conditions: Example 13 table; FPPS SPA; read-out: IC50
value type: IC50 (nM)
Enter your answer as a number in nM; do not include the unit.

In [3]: df
Out[3]:
                               given_smiles  readout_unit  reading
0  O=C(O)c1ccc(-c2ccc(F)c(F)c2)cc1OCc1cccc2ccccc12            nM      320

Form: item COc1ccc2cc(-c3ccc(C(=O)O)c(OCc4cccc5ccccc45)c3)ccc2c1 ; test system Recombinant human Farnesyl Pyrophosphate synthase (FPPS) (Homo sapiens); IC50: 380

// returns IC50 for O=C(O)c1ccc(-c2ccc(CO)cc2)cc1OCc1cccc2ccccc12 with Recombinant human Farnesyl Pyrophosphate synthase (FPPS) (Homo sapiens); value = 380

Hey, Recombinant human Farnesyl Pyrophosphate synthase (FPPS) (Homo sapiens) data for O=C(O)c1ccc(-c2cccc3[nH]ccc23)cc1OCc1cccc2ccccc12 : IC50 came out at 260

Query O=C(O)c1ccc(-c2ccc(Cl)c(Cl)c2)cc1OCc1cccc2ccccc12 on Recombinant human Farnesyl Pyrophosphate synthase (FPPS) (Homo sapiens); IC50 returned: 1460
